- System: SF-539 CNS
- experimentalProtocol: NCI tumour cell line growth inhibition, 48 h
Class TRUE: TGI at least 40 µM. Class FALSE: TGI below 40 µM.

compound	cat
c1ccc2c(c1)SC1Sc3ccccc3[S+]21 (configuration not stated)	TRUE
CN(C)c1ccc(/C=C2\N=C(c3ccccc3)N(c3nc4c(Cl)cc(Cl)cc4s3)C2=O)cc1	TRUE
COc1ccc(N=C/C=C/Nc2ccc(OC)cc2)cc1	FALSE
Cn1c(N/N=C/c2ccc(Cl)cc2)nc(-c2ccc(Cl)cc2)c(C#N)c1=O	TRUE
Cc1nc2ccccc2n1CCc1nc2ccccc2s1	TRUE
Nc1cc(CO)cc(Nc2c3ccccc3nc3occc23)c1	TRUE
O=C(N=Nc1c(O)[nH]c2ccccc12)c1ccccc1O	TRUE
CC1=C(C#N)S(=O)(=O)c2c(oc(C)c2C)N1	TRUE

Does the compound `CN(C)Cc1cc(C(=O)/C=C/c2ccc(/C=C/C(=O)c3cc(CN(C)C)c(O)c(CN(C)C)c3)cc2)cc(CN(C)C)c1O` have recorded TGI that is 40 µM or more?
TRUE

Does the compound `c1cc(-c2sc(-c3ccncc3)c(-c3ccncc3)c2-c2ccncc2)ccn1` have recorded TGI that is 40 µM or more?
FALSE

Does the compound `CC1=Nn2c(nc3sc4c(c3c2=O)CCCC4)SC1` have recorded TGI that is 40 µM or more?
TRUE

Does the compound `O=C1OCC2=Nc3cccc4cccc(c34)N12` have recorded TGI that is 40 µM or more?
TRUE

Does the compound `c1cc2c(cnc3cscc32)s1` have recorded TGI that is 40 µM or more?
TRUE

Does the compound `CCc1ccc(C2=C(O)C(=O)C(c3ccc(CC)cc3)=C(O)C2=O)cc1` have recorded TGI that is 40 µM or more?
FALSE

Does the compound `O=S1(=O)c2ccccc2N2CCCc3cc(Cl)cc1c32` have recorded TGI that is 40 µM or more?
TRUE

Does the compound Cc1ccc(C)c(NC(=O)/C(=N\NC(N)=S)C(C#N)c2ccccc2)c1 (configuration not stated) have recorded TGI that is 40 µM or more?
TRUE

---

- Test system: RPMI-8226 leukemia
- experimentalProtocol: NCI tumour cell line growth inhibition, 48 h
measuredEndpoint: log10 TGI (log10 of the value in µM)
For clarity, the numbers are log10 values of TGI expressed in µM.

Use the examples below as a reference point.
compound	log10 TGI
N#CC(c1ccccc1)c1cccc2ccccc12 (stereo not drawn)	1.83
CN(C)c1ccc(/C=C2\N=C(c3ccccc3)N(c3nc4c(Cl)cc(Cl)cc4s3)C2=O)cc1	1.89

// sample C=C1CCCCCCCCCCC1S(=O)c1ccccc1 (stereo not drawn) , its log10 TGI was 1.74

// sample `CCn1c2c(c3c(C(=O)OC)c(O)ccc31)C(=O)c1ccccc1C2=O` , its log10 TGI was 1.43

// sample `Cc1ccc2c(c1)sc(-c1ccc(N(C)C)cc1)[n+]2C` , its log10 TGI was 0.71

// sample COc1cccc(/C=C/C2=NN(c3cccc(S(=O)(=O)O)c3)C3(C2)SCC(=O)N3c2nc3ccccc3s2)c1 (stereo not drawn) , its log10 TGI was 1.72

// sample `CC[C@@]1(OC(=O)CCC(=O)O)C(=O)OCc2c1cc1n(c2=O)Cc2cc3ccccc3nc2-1` , its log10 TGI was 0.59

// sample `O=[N+]([O-])/C=C\c1ccc2c(c1)OCO2` , its log10 TGI was 0.71

// sample `COc1ccc(N=C/C=C/Nc2ccc(OC)cc2)cc1` , its log10 TGI was 1.48

// sample `COC(=O)c1c(O)ccc2c1c1c(n2C)C(=O)c2ccccc2C1=O` , its log10 TGI was 1.81

// sample `O=c1c(OC/C(=N/O)c2ccccc2)c(-c2ccccc2)oc2ccccc12` , its log10 TGI was 1.19

---

Each item that follows carries a reported GI50.
- Test system: NCI-H23 lung

Use the examples below as a reference point.
molecule	GI50
COc1cccc2c(=O)c3c(sc12)c(NCCCN)nc1ccccc13	1560 nM
O=C(Nc1ccc(Br)cc1)c1cc(Br)cc(Br)c1O	2180 nM
C=C1C(O)C2C(=C(CC(C)C)C13CC3)C(=O)C(C)(C)C2OC (centres undefined)	> 100000 nM
O=c1c(OC/C(=N/O)c2ccccc2)c(-c2ccccc2)oc2ccccc12	18100 nM
CN(C)CCNc1cccc2sc3ccc(O)cc3c(=O)c12	4030 nM

// sample `CCN(CC)C(=S)SSC1CCCCC1` , its GI50 was 20800 nM

// sample `CC/C=C\C[C@H](O)C/C=C1/C(=O)C=C[C@@H]1C/C=C\CCCC(N)=O` , its GI50 was 2130 nM

// sample `COc1ccc(-c2cn3ccnc3c(-c3ccc4ncn(C5CCCCC5)c4c3)n2)cc1` , its GI50 was 2110 nM

// sample `O=C(N/N=C/c1ccc(F)cc1)c1[nH]c2ccc(I)cc2c1-c1ccccc1` , its GI50 was 551 nM

---

- Test system: MCF7 breast
Assign a class; possible classes are 1.0 = active, 0.0 = inactive

Please review the following examples before continuing.
compound	cat
Cc1cc(O)cc(C)c1/C=C/c1cncc(C(=O)N(C)C)c1	0.0
CCN(CC)C(=S)SSC1CCCCC1	0.0

Which result was noted for this compound in the test: `O=[N+]([O-])/C=C\c1ccc2c(c1)OCO2`
0.0

Which result was noted for this compound in the test: `Cc1ccc(N2C(=O)C(Cl)=C(Nc3cccc(O)c3)C2=O)cc1Cl`
0.0

---

Each item that follows carries a reported TGI.
- Test system: MDA-N
- experimentalProtocol: NCI tumour cell line growth inhibition, 48 h
Give the quantity in µM, number only.

compound	testedTarget	TGI [µM]
Cc1ccc2c3c1O[C@H]1c4nc5ccccc5cc4C[C@@]4(O)[C@@H](C2)N(CC2CC2)CC[C@]314	MDA-N	25.4

Now consider the entry below.
// sample NC1CCC(c2cc3ccccc3s2)(N2CCCCC2)CC1 (stereo not given) , its TGI was 3.2

---

Please consider the recorded GI50 for TK-10 renal in what follows.

Use the examples below as a reference point.
compound	testedTarget	GI50
Cc1cc(O)cc(C)c1/C=C/c1cncc(C(=O)N(C)C)c1	TK-10 renal	> 25 µM
Cc1ccc(N2C(=O)C(Cl)=C(Nc3cccc(O)c3)C2=O)cc1Cl	TK-10 renal	18.5 µM
CC1=CC[C@@H]2C(C)(C)[C@@H](O)CC[C@@]2(C)[C@@H]1COc1ccc2ccc(=O)oc2c1	TK-10 renal	12.5 µM

// returns GI50 for `ClCCn1cnc2c(SCc3ccccc3)ncnc21` with TK-10 renal; value = 0.924 µM

// returns GI50 for C=C(CNCCO)[C@@H]1CC[C@]2(CO)CC[C@]3(C)[C@H](CC[C@@H]4[C@@]5(C)CCC(NCCc6ccc(O)cc6)C(C)(C)[C@@H]5CC[C@]43C)[C@@H]12 (some centres undefined) with TK-10 renal; value = 1.66 µM

// returns GI50 for `Cc1ccc(S(=O)(=O)NCCN2c3nc4ccccc4cc3Sc3cc4ccccc4nc32)cc1` with TK-10 renal; value = 28.6 µM

---

- System: EKVX NSCLC
- experimentalProtocol: NCI tumour cell line growth inhibition, 48 h
measuredEndpoint: TGI

Use the examples below as a reference point.
compound	measuredEndpoint	observed
CC(=O)C(=C(I)I)c1ccccc1	TGI	49.3 µM
CCc1cccc(C)c1NC(=O)CC1Sc2ccccc2NC1=O (stereo unspecified)	TGI	> 100 µM
O=c1[nH]cnc2c1ncn2[C@H]1CO[C@@H](CO)[C@@H]1O	TGI	> 100 µM
COc1cc(C2c3cc4c(cc3OC(N3CCOCC3)C2C)OCO4)cc(OC)c1O (stereo unspecified)	TGI	> 94 µM
c1ccc(N=NNNc2ccc(-c3nc4ccccc4[nH]3)cc2)cc1	TGI	> 100 µM
Cn1c2ccccc2n2c3nc4ccccc4nc3c(C#N)c12	TGI	> 100 µM
COC(=O)/C=C1/OC(c2ccccc2)=C(Cl)C1=O	TGI	44.5 µM
CN(C)Cc1cc(N=Nc2ccc(Cl)c(Cl)c2)ccc1O	TGI	25.6 µM
N#C/C(=C(\O)C(=O)O)c1ccc(-c2cccc3ccccc23)cc1	TGI	> 100 µM
CCOC(=O)/C=C(/CN1C(=O)c2ccccc2C1=O)c1ccccc1	TGI	> 100 µM

// sample `CN(C)c1ccc(/C=N/NC2=N/C(=C\c3ccco3)C(=O)N2)cc1` , its TGI was > 100 µM

// sample COC(=O)/C(=N/NC(C)(C)C)C(C(=O)C=C(C)C)C(=O)C(=O)Nc1ccc(Cl)cc1C (stereo unspecified) , its TGI was > 100 µM

---

- Tested on: A498 renal
Assign a class; possible classes are True = active, False = inactive

Please review the following examples before continuing.
molecule	cat
CCCCc1cc(O)ccc1O	False
Cc1ccc(S(=O)(=O)NCCN2c3nc4ccccc4cc3Sc3cc4ccccc4nc32)cc1	False
O=C1NC(=O)C(c2ccccc2Cl)=C1Nc1cccc(O)c1	False
O=C(N/N=C/c1ccc(F)cc1)c1[nH]c2ccc(I)cc2c1-c1ccccc1	True
CC1=CC[C@@H]2C(C)(C)[C@@H](O)CC[C@@]2(C)[C@@H]1COc1ccc2ccc(=O)oc2c1	False
C=C1C(=O)O[C@H]2[C@H]1CC/C(COC(=O)c1ccc(C(=O)O)s1)=C\CC[C@@]1(C)O[C@@H]21	False
COc1ccc(-c2cn3ccnc3c(-c3ccc4ncn(C5CCCCC5)c4c3)n2)cc1	False
CCN(CC)C(=S)SSC1CCCCC1	False

Note: attention shifts to another entry.
Which result was noted for this molecule in the test: `Cc1ccc(N2C(=O)C(Cl)=C(Nc3cccc(O)c3)C2=O)cc1Cl`
False
